Parameter glycan array binding signal (z-score): see the listing below.
ASSAYED_TARGET: Fuc(a1-2)[Gal(a1-3)]Gal(b1-3)GalNAc
PROCEDURE_SUMMARY: glycan array binding signal (z-score within array); higher = stronger binding
RECORDED_CONDITIONS: glycan notation: IUPAC condensed, linker removed
The sample as a whole holds a higher share of the strongest signals than the screen did.
METRIC: glycan array binding signal (z-score)

BINDER: LTL (Lotus tetragonolobus), P19664 (protein) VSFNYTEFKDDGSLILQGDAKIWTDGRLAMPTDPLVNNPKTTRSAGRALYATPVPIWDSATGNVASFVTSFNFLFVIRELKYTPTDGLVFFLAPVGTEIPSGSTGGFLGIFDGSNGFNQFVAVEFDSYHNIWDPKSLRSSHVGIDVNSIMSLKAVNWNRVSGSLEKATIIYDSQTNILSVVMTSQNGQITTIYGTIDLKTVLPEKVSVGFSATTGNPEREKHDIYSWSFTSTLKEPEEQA
METRIC: glycan array binding signal (z-score)
EXPERIMENTAL_RESULT: 0.102
//
BINDER: RobpsCRA (Robinia pseudoacacia) (protein) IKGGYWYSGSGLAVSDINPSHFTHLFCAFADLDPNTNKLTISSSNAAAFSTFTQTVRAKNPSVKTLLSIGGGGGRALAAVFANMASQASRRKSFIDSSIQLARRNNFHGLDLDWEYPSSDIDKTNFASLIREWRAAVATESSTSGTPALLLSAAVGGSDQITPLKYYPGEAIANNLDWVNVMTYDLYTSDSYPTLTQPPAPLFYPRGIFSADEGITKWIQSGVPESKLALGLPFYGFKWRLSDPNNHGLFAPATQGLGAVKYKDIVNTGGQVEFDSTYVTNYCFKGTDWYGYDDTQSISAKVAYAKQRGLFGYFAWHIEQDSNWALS
METRIC: glycan array binding signal (z-score)
EXPERIMENTAL_RESULT: -0.447
//
BINDER: Sebin1 (Coprinopsis cinerea), A8PEE3 (protein) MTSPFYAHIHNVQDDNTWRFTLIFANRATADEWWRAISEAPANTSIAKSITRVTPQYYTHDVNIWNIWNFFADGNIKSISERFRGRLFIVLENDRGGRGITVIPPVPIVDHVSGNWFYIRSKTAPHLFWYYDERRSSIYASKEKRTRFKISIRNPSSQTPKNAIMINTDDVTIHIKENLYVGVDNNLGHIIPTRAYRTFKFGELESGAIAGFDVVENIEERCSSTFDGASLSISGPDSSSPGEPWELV
METRIC: glycan array binding signal (z-score)
EXPERIMENTAL_RESULT: -0.147
//
BINDER: AT1G15820(2) (Arabidopsis thaliana), Q9LMQ2 (protein) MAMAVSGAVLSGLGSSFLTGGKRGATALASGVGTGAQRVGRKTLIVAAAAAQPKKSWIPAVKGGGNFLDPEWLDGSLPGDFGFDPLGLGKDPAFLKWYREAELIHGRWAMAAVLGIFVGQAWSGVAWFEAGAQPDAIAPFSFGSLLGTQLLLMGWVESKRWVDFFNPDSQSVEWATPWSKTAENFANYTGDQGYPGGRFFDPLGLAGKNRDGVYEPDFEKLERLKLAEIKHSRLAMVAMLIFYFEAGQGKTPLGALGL
METRIC: glycan array binding signal (z-score)
EXPERIMENTAL_RESULT: -0.022
//
BINDER: RsaA-N-term (Caulobacter crescentus), P35828 (protein) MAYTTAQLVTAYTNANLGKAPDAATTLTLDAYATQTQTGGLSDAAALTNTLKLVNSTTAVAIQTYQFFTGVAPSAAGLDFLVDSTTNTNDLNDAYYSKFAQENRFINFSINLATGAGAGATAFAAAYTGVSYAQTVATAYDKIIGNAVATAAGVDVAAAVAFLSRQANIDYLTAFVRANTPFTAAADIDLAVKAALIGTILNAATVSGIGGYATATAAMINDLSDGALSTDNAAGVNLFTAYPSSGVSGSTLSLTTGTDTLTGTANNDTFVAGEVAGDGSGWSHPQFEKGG
METRIC: glycan array binding signal (z-score)
EXPERIMENTAL_RESULT: -0.328
//
BINDER: ABA (Agaricus bisporus), Q00022 (protein) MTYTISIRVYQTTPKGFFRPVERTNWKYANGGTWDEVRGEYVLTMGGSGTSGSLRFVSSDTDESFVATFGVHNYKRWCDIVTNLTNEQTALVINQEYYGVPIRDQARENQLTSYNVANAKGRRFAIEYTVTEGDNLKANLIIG
METRIC: glycan array binding signal (z-score)
EXPERIMENTAL_RESULT: -0.239
//
BINDER: rCNL (Clitocybe nebularis), B2ZRS9 (protein) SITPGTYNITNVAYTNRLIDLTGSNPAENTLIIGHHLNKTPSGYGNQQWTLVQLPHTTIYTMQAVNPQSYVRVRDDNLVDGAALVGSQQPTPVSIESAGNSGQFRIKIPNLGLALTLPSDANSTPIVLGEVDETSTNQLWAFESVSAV
METRIC: glycan array binding signal (z-score)
EXPERIMENTAL_RESULT: -0.222
//
BINDER: AT1G15820(NC) (Arabidopsis thaliana) (protein) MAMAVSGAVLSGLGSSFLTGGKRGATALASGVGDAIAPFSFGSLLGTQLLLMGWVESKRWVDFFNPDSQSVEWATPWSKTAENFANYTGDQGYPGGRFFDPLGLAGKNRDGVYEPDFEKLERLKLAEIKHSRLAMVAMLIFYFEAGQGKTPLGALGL
METRIC: glycan array binding signal (z-score)
EXPERIMENTAL_RESULT: 0.211
//
BINDER: GSL-I-B4 (Griffonia simplicifolia) (protein) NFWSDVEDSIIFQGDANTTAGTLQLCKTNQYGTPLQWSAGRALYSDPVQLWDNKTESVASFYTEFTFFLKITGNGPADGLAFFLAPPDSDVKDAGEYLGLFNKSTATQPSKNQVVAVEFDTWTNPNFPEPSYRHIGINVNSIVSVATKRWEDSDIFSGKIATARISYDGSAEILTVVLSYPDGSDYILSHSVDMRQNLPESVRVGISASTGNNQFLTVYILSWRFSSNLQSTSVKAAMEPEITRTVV
METRIC: glycan array binding signal (z-score)
EXPERIMENTAL_RESULT: 0.853
//
BINDER: Gal 1 (Mus musculus), P16045 (protein) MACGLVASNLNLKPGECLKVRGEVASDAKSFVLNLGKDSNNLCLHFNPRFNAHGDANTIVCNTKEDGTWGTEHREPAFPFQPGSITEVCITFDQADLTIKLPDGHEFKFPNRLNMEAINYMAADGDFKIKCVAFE
METRIC: glycan array binding signal (z-score)
EXPERIMENTAL_RESULT: -0.363
